Reported IC50 is given for each of the following compounds.
# Measurement Description: Inhibition of porcine pancreatic elastase using N-succinyl-Ala-Ala-Ala-p-nitroanilide as substrate preincubated with enzyme for 15 mins followed by substrate addition and measured for 30 mins
# Set-up: species or system Sus scrofa
Starred links: 1 amine or outer side, 2 acyl side, 3 side chain; linkers in the order of their positions; H or OH if unused. Positions of bridges follow the written chain, without caps; N, C: chain ends. Non-standard residues stand in square brackets, D forms with d. Residues, ends and D or L forms follow the SMILES beside them. X2 = O=C(/C=C/c1csc([C@H](Cc2ccc(O)cc2)N[*:1])n1)[*:2]; X1 = CC[C@H](C)[C@H](N[*:1])C(=O)C(=O)[*:2]; Cya = N[C@@H](CS(=O)(=O)O)C(=O)O; Dap = NC[C@H](N)C(=O)O
Give the value, in units of nM, as a plain number.

# compound `CC(C)C[C@@H]1NC(=O)[C@H](NC(=O)N[C@@H](Cc2ccccc2)C(=O)O)CCCCNC(=O)[C@H](Cc2ccccc2)NC(=O)[C@H](Cc2c[nH]c3cc(Cl)c(O)cc23)N(C)C(=O)[C@H](CC(C)C)NC1=O` ; its IC50 = 51.3

Next compound, IC50 to be filled in.
IC50 in this record for CC[C@H](C)[C@@H]1NC(=O)[C@H](CC(C)C)NC(=O)[C@@H](NC(=O)[C@H](C)N)CNC(=O)[C@H](CS(=O)(=O)O)NC(=O)/C=C/c2csc(n2)[C@H](Cc2ccc(O)cc2)NC(=O)C1=O (H-A[Dap]L[X1][X2][Cya]; lactam 2-C) : 28
